src = ChEMBL document CHEMBL3301361

test: in vitro
assay.setup: SD, HW or BN, rat, plasma
measured.parameter: fraction unbound at 5 h
Please give the numeric answer without any surrounding text.

Enquiry: Using the record for `COc1ccnc(CCc2nc3ncccc3[nH]2)c1` , state its measured fraction unbound at 5 h.
Return: 0.309

Enquiry: Using the record for `CCC(CC)NC(=O)c1cn(-c2ccccc2)nc1NS(=O)(=O)c1ccc(C)cc1` , state its measured fraction unbound at 5 h.
Return: 0.0033

Enquiry: Using the record for `NC(=O)c1cc(C(N)=O)n(-c2cccc(-c3cc(C(F)(F)F)ccc3C(F)(F)F)c2)n1` , state its measured fraction unbound at 5 h.
Return: 0.0568

Enquiry: Using the record for CNc1ccc(-c2nc3ccc(O)cc3s2)cc1 [PITTSBURGH COMPOUND B UNLABELLED] , state its measured fraction unbound at 5 h.
Return: 0.0183

Enquiry: Using the record for `COc1ccc(-c2c(C(=O)N3CCC[C@H]3CO)cc3cccnn23)cc1` , state its measured fraction unbound at 5 h.
Return: 0.262

Enquiry: Using the record for `COc1cc(F)c(C(C)C)cc1-c1ccc(C(F)(F)F)cc1CN1C(=O)O[C@H](c2cc(C(F)(F)F)cc(C(F)(F)F)c2)[C@@H]1C` , state its measured fraction unbound at 5 h.
Return: 0.0328

Enquiry: Using the record for `C[C@H](Nc1nc(Nc2cc(C3CC3)[nH]n2)c(F)cc1C#N)c1ccc(F)cc1` , state its measured fraction unbound at 5 h.
Return: 0.002

Enquiry: Using the record for `COC[C@H](O)Cn1c(=O)cnn(-c2ccc(Cl)c(C(=O)NCC3(O)CCCCCC3)c2)c1=O` , state its measured fraction unbound at 5 h.
Return: 0.477

Enquiry: Using the record for `Cc1cc(C)c(S(=O)(=O)NCc2ccncc2)c(C)c1` , state its measured fraction unbound at 5 h.
Return: 0.139

Enquiry: Using the record for `O=C(NC12CC3CC(CC(C3)C1)C2)OCCNC1CCCCC1` , state its measured fraction unbound at 5 h.
Return: 0.129

Enquiry: Using the record for `CS(=O)(=O)c1ccc(-c2cc(C(F)(F)F)ccc2OCC(=O)O)c(Cl)c1` , state its measured fraction unbound at 5 h.
Return: 0.0499

Enquiry: Using the record for `O=C(O)C[C@H](O)C[C@H](O)/C=C/c1c(C2CC2)nc2ccccc2c1-c1ccc(F)cc1` , state its measured fraction unbound at 5 h.
Return: 0.0064

Enquiry: Using the record for CC(C(=O)OC1CC[N+](C)(C)CC1)(c1ccccc1)N1CCC(F)(F)CC1 (centres undefined) , state its measured fraction unbound at 5 h.
Return: 0.624

Enquiry: Using the record for `CCCn1c(=O)[nH]c2nc(-c3ccc(S(=O)(=O)N4CCN(Cc5ccc(Cl)cc5)CC4)cc3)[nH]c2c1=O` , state its measured fraction unbound at 5 h.
Return: 0.0006

Enquiry: Using the record for `CC(C)Cc1c(C(=O)C(N)=O)c2c(OCC(=O)O)cccc2n1Cc1ccccc1` , state its measured fraction unbound at 5 h.
Return: 0.0187

Enquiry: Using the record for `CC(C)Cn1cnc2c(N)nc3ccccc3c21` , state its measured fraction unbound at 5 h.
Return: 0.179

Enquiry: Using the record for `COc1cc2c(cc1-c1c(C)noc1C)ncc1[nH]c(=O)n([C@H](C)c3ccccn3)c12` , state its measured fraction unbound at 5 h.
Return: 0.0374

Enquiry: Using the record for `C[C@H](Nc1ncc(F)c(Nc2cc(C3CC3)[nH]n2)n1)c1ccc(F)cn1` , state its measured fraction unbound at 5 h.
Return: 0.035

Enquiry: Using the record for `Cc1nocc1C(=O)Nc1ccc(-c2ccccc2OC(F)(F)F)c(N)n1` , state its measured fraction unbound at 5 h.
Return: 0.0366
